Molecular target: T1, B7-H3 (4Ig-B7-H3) endogenously expressed on MDA-MB-231 cells (UniProt Q5ZPR3 29-534, limits assumed)
T1 construct: whole, on cells; also called 细胞表面的B7-H3抗原
T1 sequence (looked up): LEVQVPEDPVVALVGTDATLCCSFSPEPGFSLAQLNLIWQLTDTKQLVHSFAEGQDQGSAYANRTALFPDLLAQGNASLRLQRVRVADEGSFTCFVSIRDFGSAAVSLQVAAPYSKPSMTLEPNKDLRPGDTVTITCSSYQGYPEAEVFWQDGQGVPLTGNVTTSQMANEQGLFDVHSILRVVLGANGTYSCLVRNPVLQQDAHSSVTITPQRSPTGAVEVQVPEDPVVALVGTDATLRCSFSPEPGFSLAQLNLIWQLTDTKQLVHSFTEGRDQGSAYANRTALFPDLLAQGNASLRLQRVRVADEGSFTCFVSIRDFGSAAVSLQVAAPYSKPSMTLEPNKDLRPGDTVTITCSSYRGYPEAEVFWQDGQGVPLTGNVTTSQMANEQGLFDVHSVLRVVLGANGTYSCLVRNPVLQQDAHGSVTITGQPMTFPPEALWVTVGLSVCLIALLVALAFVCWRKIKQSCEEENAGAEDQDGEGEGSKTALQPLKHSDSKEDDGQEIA
Test: FACS, MDA-MB-231 cells
property-label: binding result

scFv-27B4-H2-L2 (scFv, Expressed from phage display vector pXY in TG1, purified on a nickel column) scFv: QVQLVQSGAEVKKPGSSVKVSCKASGYTFTTYWISWVRQAPGQGLEWMGGIYPGDGGSNYAQKFQGRVTITADESTSTAYMELSSLRSEDTAVYYCARGGNYISFPMYYWGQGTLVTVSSGGGGSGGGGSGGGGSGGGGASVIWMTQSPSLLSASTGDRVTISCKASRGVSTALAWYQQKPGKAPELLIYWASTLQSGVPSRFSGSGSGTDFTLTISCLQSEDFATYYCQQHYDTPYTFGQGTKLEIK : binds
scFv-27B4-H3-L4 (scFv, VH-linker-VL in phage display vector pXY, expressed in TG1, purified on a nickel column) scFv: QVQLVQSGSELKKPGASVKVSCKASGYTFTTYWMNWVRQAPGQGLEWMGWIYPGDGGSTYAQGFTGRFVFSLDTSVSTAYLQICSLKAEDTAVYYCARGGNYISFPMYYWGQGTLVTVSSGGGGSGGGGSGGGGSGGGGASEIVLTQSPDFQSVTPKEKVTITCKASRGVSTALHWYQQKPDQSPKLLIKWASQSFSGVPSRFSGSGSGTDFTLTINSLEAEDAATYYCQQHYDTPYTFGQGTKLEIK : binds
scFv-27B4-H1-L1 (scFv, VH-linker-VL in phage display vector pXY, expressed in TG1, purified on a nickel column) scFv: QVQLVQSGAEVKKPGASVKVSCKASGYTFTTYWMHWVRQAPGQGLEWMGIIYPGDGGSSYAQKFQGRVTMTRDTSTSTVYMELSSLRSEDTAVYYCARGGNYISFPMYYWGQGTLVTVSSGGGGSGGGGSGGGGSGGGGASDIQMTQSPSSLSASMGDRVTITCKASRGVSTALNWYQQKPGKAPKLLIYWASSLQSGVPSRFSGSGSGTDFTLTISSLQPEDFATYYCQQHYDTPYTFGQGTKLEIK : binds
